Test system: KALS-1 (Glioblastoma)
measurementDescription: combination Emax (second highest fraction inhibited in the dose matrix, 72 h); higher = more inhibition; extreme values may be limits of the assay
quantity: combination Emax

CN(CCO)CC[C@H](CSc1ccccc1)Nc1ccc(S(=O)(=O)NC(=O)c2ccc(N3CCC([C@@H](O)c4ccccc4-c4ccc(Cl)cc4)CC3)cc2)cc1S(=O)(=O)C(F)(F)F [AZD4320] + Nc1ccn([C@@H]2O[C@H](CO)[C@@H](O)C2(F)F)c(=O)n1 [Gemcitabine] (first compound max 1 µM, 7x7, partner max 0.3 µM) :: 0.595
Cc1c2c(nn1C)CSCc1cc(n(C)n1)CSc1cc(c3ccccc3c1)OCCCc1c(C(=O)O)n(C)c3c-2c(Cl)ccc13 [AZD5991] + C[C@@H](Nc1cc(F)cc(F)c1)c1cc(C(=O)N(C)C)cc2c(=O)cc(N3CCOCC3)oc12 [AZD8186] (first compound max 1 µM, 7x7, partner max 3 µM) :: 0.436
Cc1c2c(nn1C)CSCc1cc(n(C)n1)CSc1cc(c3ccccc3c1)OCCCc1c(C(=O)O)n(C)c3c-2c(Cl)ccc13 [AZD5991] + CC1(C)CCC(CN2CCN(c3ccc(C(=O)NS(=O)(=O)c4ccc(NCC5CCOCC5)c([N+](=O)[O-])c4)c(Oc4cnc5[nH]ccc5c4)c3)CC2)=C(c2ccc(Cl)cc2)C1 [Venetoclax] (first compound max 1 µM, 7x7, partner max 1 µM) :: 0.305
